Reference source for all entries: paper PMC10096180

experiment: Distribution coefficient (logD), n-octanol-PBS; format: physicochemical; details: n-octanol-PBS (pH = 7.4) system
reported.metric: logD

For orientation, consider the following solved cases.
| compound | recorded.value |
| --- | --- |
| Cc1ccc(C(C)C)cc1.F[P-](F)(F)(F)(F)F.NC1C(c2cccnn2)OC(COC(=O)c2ccccc2)C(OC(=O)c2ccccc2)C1OC(=O)c1ccccc1.[Cl][Os+] (mixture of isomers) | 1.32 |
| Cc1ccc(C(C)C)cc1.F[P-](F)(F)(F)(F)F.NC1C(c2cccnn2)OC(COC(=O)c2ccccc2)C(OC(=O)c2ccccc2)C1OC(=O)c1ccccc1.[Cl][Ru+] (mixture of isomers) | 1.39 |
| Cc1c(C)c(C)[c-](C)c1C.F[P-](F)(F)(F)(F)F.NC1C(c2cccnn2)OC(COC(=O)c2ccccc2)C(OC(=O)c2ccccc2)C1OC(=O)c1ccccc1.[Cl][Rh+2] (mixture of isomers) | 1.41 |

A: Cc1c(C)c(C)[c-](C)c1C.F[P-](F)(F)(F)(F)F.N[C@@H]1[C@@H](OC(=O)c2ccccc2)[C@H](OC(=O)c2ccccc2)[C@@H](COC(=O)c2ccccc2)O[C@H]1c1cnccn1.[Cl][Ir+2]
B: Cc1c(C)c(C)[c-](C)c1C.F[P-](F)(F)(F)(F)F.N[C@@H]1[C@@H](OCc2ccccc2)[C@H](OCc2ccccc2)[C@@H](COCc2ccccc2)O[C@H]1c1ccccn1.[Cl][Ir+2]
Exam item: Lab note: check whether A or B shows the higher recorded logD. Could you answer with the label of the item you picked?
Marked response: B
